H1.0 immunofluorescence intensity values, listed per item
tested on: TDF; experiment: H1.0 immunofluorescence intensity relative to DMSO (% of DMSO); higher = stronger H1.0 induction, active = 120 or more; settings: concentration: 10 µM; 24 h;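 note: TDF is a line of transformed human dermal fibroblasts of mesenchymal origin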
Hey, just send me the number, nothing else.

molecule: CCCCCCCCCCCCCCCCC(=O)O
system_under_test: TDF;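 note: TDF is a line of transformed human dermal fibroblasts of mesenchymal origin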
H1.0 immunofluorescence intensity: 103

**Q:** // query H1.0 immunofluorescence intensity value for entry `CSc1nc2ccc3nc(NC(=O)C(c4ccccc4)c4ccccc4)sc3c2s1`
**A:** 99.4

**Q:** # lookup: H1.0 immunofluorescence intensity of CCN1CCCC1CNC(=O)c1cc(S(N)(=O)=O)ccc1OC [(S)-(-)-Sulpiride]
**A:** 99.8

**Q:** I have this molecule here, `CCC(=C(c1ccccc1)c1ccc(OCCN(C)C)cc1)c1ccccc1` , and I need its recorded H1.0 immunofluorescence intensity.
**A:** 97.7

**Q:** Return reported H1.0 immunofluorescence intensity; argument: `Cc1ccc(C(=O)Nc2ccc(S(=O)(=O)[O-])c3cc(S(=O)(=O)[O-])cc(S(=O)(=O)[O-])c23)cc1NC(=O)c1cccc(NC(=O)Nc2cccc(C(=O)Nc3cc(C(=O)Nc4ccc(S(=O)(=O)[O-])c5cc(S(=O)(=O)[O-])cc(S(=O)(=O)[O-])c45)ccc3C)c2)c1`
**A:** 96.7

**Q:** Which H1.0 immunofluorescence intensity is listed for O=[N+]([O-])c1ccc(CSc2ncnc3c2ncn3C2OC(CO)C(O)C2O)cc1 (configuration not stated) ?
**A:** 92.2

**Q:** Entry under review: `C=CCc1ccc(O)c(-c2cc(CC=C)ccc2O)c1` . Reported H1.0 immunofluorescence intensity?
**A:** 91.7

// provenance: the supplement of paper PMC7156485
